Each recorded value in this set is attributed to paper PMC2756588.

Biological target: T1, Fus1, P11710
T1 sequence (P11710 432-512, looked up): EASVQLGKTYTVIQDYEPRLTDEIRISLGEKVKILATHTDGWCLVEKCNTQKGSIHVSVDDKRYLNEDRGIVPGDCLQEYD
Assay: SPOT array
Details: median of control spots 1200
REPORTED_PROPERTY: SPOT intensity

The following binders have reported results that may help.
| BINDER | SPOT intensity |
| --- | --- |
| APPLPPTAPPPPSLP | 0 |
| PHNPSPFFPPPDFND | 0 |
| SKAKRPKFLLDLQIK | 3 |
| GKLKHIPRRPYEIER | 0 |
| KRKRFNLLLPKPYLT | 64 |

[1] RSLRKRPTSPSISGS
[2] GDHPKGPPPPPPPDE
(Q) Compare reported SPOT intensity values for 1 and 2 . Which is lower? Could you answer with the label of the item you picked?
(A) 2
